system: HIVIIIB; assay: HIV-1 replication in MT2 cell line with 30% human serum (RT activity in supernatant); format: cell-based; conditions: Human immunodeficiency virus 1, 120 h, MT2 cells, day 5 after infection, average if tested more than once, read-out: MT2 (HIVIIIB) with human serum IC50 range
pIC50: −log10 of the molar value.
METRIC: pIC50

Consider the molecule shown here: C=C(C)[C@@H]1CC[C@]2(N(C)C)CC[C@]3(C)[C@H](CC[C@@H]4[C@@]5(C)CC[C@H](OC(=O)CC(C)(C)C(=O)O)C(C)(C)[C@@H]5CC[C@]43C)[C@@H]12 [Cpd 10-3] What is its recorded pIC50?
> 6.70

I am curious: what pIC50 value has been reported for C=C(C)[C@@H]1CC[C@]2(NC(=O)N3CCOCC3)CC[C@]3(C)[C@H](CC[C@@H]4[C@@]5(C)CC[C@H](OC(=O)CC(C)(C)C(=O)O)C(C)(C)[C@@H]5CC[C@]43C)[C@@H]12 [Cpd 11-8] ?
> 6.70

Suppose we examine the molecule C=C(C)[C@@H]1CC[C@]2(NC(=O)N[C@@H](C)c3ccccc3)CC[C@]3(C)[C@H](CC[C@@H]4[C@@]5(C)CC[C@H](OC(=O)CC(C)(C)C(=O)O)C(C)(C)[C@@H]5CC[C@]43C)[C@@H]12 [Cpd 11-23] ; what pIC50 value has been reported?
> 6.70

GET /values?readout=pIC50&item= C=C(C)[C@@H]1CC[C@]2(NC(=O)N(C)C)CC[C@]3(C)[C@H](CC[C@@H]4[C@@]5(C)CC[C@H](OC(=O)CC(C)(C)C(=O)O)C(C)(C)[C@@H]5CC[C@]43C)[C@@H]12 [Cpd 11-13]
> 6.70

Any idea what its pIC50 is? The molecule is C=C(C)[C@@H]1CC[C@]2(NS(C)(=O)=O)CC[C@]3(C)[C@H](CC[C@@H]4[C@@]5(C)CC[C@H](OC(=O)CC(C)(C)C(=O)O)C(C)(C)[C@@H]5CC[C@]43C)[C@@H]12 [Cpd 12-1]
> 6.70

Please give the measured pIC50 for this molecule: C=C(C)[C@@H]1CC[C@]2(NC(=O)NC(C)C)CC[C@]3(C)[C@H](CC[C@@H]4[C@@]5(C)CC[C@H](OC(=O)CC(C)(C)C(=O)O)C(C)(C)[C@@H]5CC[C@]43C)[C@@H]12 [Cpd 11-16]
6.00 to 6.70

Form field: reported pIC50 of C=C(C)[C@@H]1CC[C@]2(NC(=O)C(C)C)CC[C@]3(C)[C@H](CC[C@@H]4[C@@]5(C)CC[C@H](OC(=O)CC(C)(C)C(=O)O)C(C)(C)[C@@H]5CC[C@]43C)[C@@H]12 [Cpd 13-10]
> 6.70

// returns reported pIC50 for input C=C(C)[C@@H]1CC[C@]2(N)CC[C@]3(C)[C@H](CC[C@@H]4[C@@]5(C)CC[C@H](OC(=O)[C@H]6CCC[C@@H](C(=O)O)C6)C(C)(C)[C@@H]5CC[C@]43C)[C@@H]12 [Cpd 9-3]
> 6.70

What does the record list as pIC50 for C=C(C)[C@@H]1CC[C@]2(N)CC[C@]3(C)[C@H](CC[C@@H]4[C@@]5(C)CC[C@H](OC(=O)CC(C)(C)C(=O)O)C(C)(C)[C@@H]5CC[C@]43C)[C@@H]12 [Cpd 9-1] ?
> 6.70

Data request, read-out pIC50, for C=C(C)[C@@H]1CC[C@]2(NC(=O)Nc3nnc(C)o3)CC[C@]3(C)[C@H](CC[C@@H]4[C@@]5(C)CC[C@H](OC(=O)CC(C)(C)C(=O)O)C(C)(C)[C@@H]5CC[C@]43C)[C@@H]12 [Cpd 11-15]
> 6.70

Entry C=C(C)[C@@H]1CC[C@]2(NC(=O)NC(C)(C)c3ccccc3)CC[C@]3(C)[C@H](CC[C@@H]4[C@@]5(C)CC[C@H](OC(=O)CC(C)(C)C(=O)O)C(C)(C)[C@@H]5CC[C@]43C)[C@@H]12 [Cpd 11-28] has what pIC50?
> 6.70

Form field: reported pIC50 of C=C(C)[C@@H]1CC[C@]2(NC(=O)c3ccncc3)CC[C@]3(C)[C@H](CC[C@@H]4[C@@]5(C)CC[C@H](OC(=O)[C@H]6CCC[C@@H](C(=O)O)C6)C(C)(C)[C@@H]5CC[C@]43C)[C@@H]12 [Cpd 13-15]
< 6.00

Item C=C(C)[C@@H]1CC[C@]2(NC(=O)NC3CCC(F)(F)CC3)CC[C@]3(C)[C@H](CC[C@@H]4[C@@]5(C)CC[C@H](OC(=O)CC(C)(C)C(=O)O)C(C)(C)[C@@H]5CC[C@]43C)[C@@H]12 [Cpd 11-25] has what recorded pIC50?
> 6.70

Name the reported pIC50 value associated with the molecule C=C(C)[C@@H]1CC[C@]2(NC(N)=O)CC[C@]3(C)[C@H](CC[C@@H]4[C@@]5(C)CC[C@H](OC(=O)CC(C)(C)C(=O)O)C(C)(C)[C@@H]5CC[C@]43C)[C@@H]12 [Cpd 11-10]
> 6.70

I have this molecule here, C=C(C)[C@@H]1CC[C@]2(NC(=O)NCC3CCN(C)CC3)CC[C@]3(C)[C@H](CC[C@@H]4[C@@]5(C)CC[C@H](OC(=O)CC(C)(C)C(=O)O)C(C)(C)[C@@H]5CC[C@]43C)[C@@H]12 [Cpd 11-14] , and I need its recorded pIC50.
> 6.70

I would be grateful if you could share the reported pIC50 for C=C(C)[C@@H]1CC[C@]2(NC(=O)c3ccncc3)CC[C@]3(C)[C@H](CC[C@@H]4[C@@]5(C)CC[C@H](OC(=O)CC(C)(C)C(=O)O)C(C)(C)[C@@H]5CC[C@]43C)[C@@H]12 [Cpd 13-8] .
6.00 to 6.70

GET /values?readout=pIC50&item= C=C(C)[C@@H]1CC[C@]2(NC(=O)NC(=O)OC)CC[C@]3(C)[C@H](CC[C@@H]4[C@@]5(C)CC[C@H](OC(=O)CC(C)(C)C(=O)O)C(C)(C)[C@@H]5CC[C@]43C)[C@@H]12 [Cpd 11-1]
> 6.70
